System: SF-539 CNS
Experiment: NCI-60 one-dose screen, 48 h
Conditions: 10 µM unless noted
This is part of a sample that, as a whole, favours compounds with a hit. Of some 83,000 tested, about 20% had one in any assay. Active and inactive are the calls of the source. The calls were made as follows: active = growth percent below 10; inactive = the rest.
Use one of these outcomes when replying: 1.0 (active), 0.0 (inactive)

Query block: Field: outcome | Entry: "C=C(C)[C@@H]1CC[C@]2(C(N)=O)CC[C@]3(C)[C@H](CC[C@@H]4[C@@]5(C)CC[C@H](OCCC#N)C(C)(C)[C@@H]5CC[C@]43C)[C@@H]12"
Result block: 0.0

Query block: Field: outcome | Entry: "COc1ccc2c(c1)c(-c1nc(-c3c[nH]c4ncccc34)cs1)cn2CCO"
Result block: 0.0

---
Query block: Field: outcome | Entry: "C=CCn1c(SCC(=O)Nc2ccc(/C(C)=N/O)cc2)nnc1-c1cc(-c2ccc(S(N)(=O)=O)cc2)nc2ccccc12"
Result block: 0.0

Query block: Field: outcome | Entry: "C[C@@H]1O[C@@H](O[C@@H]2C[C@H](c3ccc4c(c3O)C(=O)C3=C(C4=O)[C@@]4(O)C(=O)C[C@](C)(O)C[C@@]4(O)C=C3)O[C@H](C)[C@H]2O)CC[C@@H]1O[C@H]1C[C@@H](O)[C@H](O)[C@@H](C)O1"
Result block: 0.0

Query block: Field: outcome | Entry: N=c1c(S(=O)(=O)c2ccccc2)cc2c(=O)n3ccccc3nc2n1CC1CCCO1 (centres undefined)
Result block: 0.0

Query block: Field: outcome | Entry: "S=C(c1ccc2c(c1)OCO2)N1CCN(c2cccc(Cl)c2)CC1"
Result block: 1.0

Query block: Field: outcome | Entry: "CCCCCCCC/C=C\CCCCCCCCOc1ccc(CC(=O)NCC[N+]2(C)CCOCC2)cc1"
Result block: 0.0

Query block: Field: outcome | Entry: "Nc1nc(NC(=O)Nc2ccc(C(=O)O)cc2)nn1-c1ccc(S(N)(=O)=O)cc1"
Result block: 0.0

Query block: Field: outcome | Entry: "O=C1Nc2ccccc2/C1=C/c1cccn1C(=O)c1ccc(Cl)s1"
Result block: 0.0

----------
System: NCI-H522 lung
Test: NCI-60 one-dose screen, 48 h
Details: 10 µM unless noted
This is part of a sample that, as a whole, favours compounds with a hit. Of some 83,000 tested, about 20% had one in any assay. Activity calls are given as the source filed them. The calls were made as follows: active = growth percent below 10; inactive = the rest.
Use one of these outcomes when replying: yes (1) for active, no (0) for inactive

Some solved entries appear below for comparison.
Query block: Field: outcome | Entry: "CCOc1cccc(/C=N/NC(=O)c2cccc(Nc3ccnc(C(F)(F)F)c3)c2)c1O"
Result block: no (0)

Query block: Field: outcome | Entry: "N#Cc1nc(-c2ccccc2)oc1S(=O)(=O)N1CCN(c2ccc(F)cc2)CC1"
Result block: yes (1)

Query block: Field: outcome | Entry: "Cc1ccc(-c2nc(SCc3nc4cc(Cl)c(Cl)cc4[nH]3)[nH]c(=O)c2C#N)cc1"
Result block: no (0)

Next item in the queue.
Query block: Field: outcome | Entry: CCN1C(=O)N(CC)C2C1NN=c1s/c(=C3\C(=O)N(CC(C)C)c4ccccc43)c(=O)n12 (centres undefined)
Result block: yes (1)

----------
Tested on: M14 melanoma
Test: NCI-60 one-dose screen, 48 h
Details: 10 µM unless noted
This is part of a sample that, as a whole, favours compounds with a hit. Of some 83,000 tested, about 20% had one in any assay. Calls of active or inactive are those of the source. Rule for the calls: active = growth percent below 10; inactive = the rest.
Use one of these outcomes when replying: yes (active), no (inactive)

Query block: Field: outcome | Entry: "C=C(C)[C@@H]1CC[C@]2(C(N)=O)CC[C@]3(C)[C@H](CC[C@@H]4[C@@]5(C)CC[C@H](OCCC#N)C(C)(C)[C@@H]5CC[C@]43C)[C@@H]12"
Result block: no

Query block: Field: outcome | Entry: C/C=C(\C)C(=O)N[C@H]1C(O)C[C@]2(C)C3CC[C@@]4(C)C(CC[C@@H]4C(C)N(C)C)C3CCC2C1O (stereo not given in full)
Result block: yes

Query block: Field: outcome | Entry: "Cc1ccc(C)c2c(C)c(C(=O)Nc3cccc(-n4cccn4)c3)oc12"
Result block: no

Query block: Field: outcome | Entry: "COc1cc2c(cc1OCCCCN1CCN(C(=S)SCCC(C#N)(c3ccccc3)c3ccccc3)CC1)N=C[C@@H]1CCCN1C2=O"
Result block: yes

Next item in the queue.
Query block: Field: outcome | Entry: "C=C1C(=O)O[C@H]2[C@H]1CC/C(COC(=O)/C=C\C(=O)NCc1ccc(Cn3c(=O)sn(CCCl)c3=O)cc1)=C\CC[C@@]1(C)O[C@@H]21"
Result block: no
